protocol-text: in vivo
measurement-context: beagle, dog, iv, 1 mg/kg
metric-name: clearance (mL/min/kg)
Form entry: value (mL/min/kg) — number only.

Query string: Tell me the measured clearance of CC12OC(CC1(O)CO)n1c3ccccc3c3c4c(c5c6ccccc6n2c5c31)CNC4=O (stereo not shown) [Compound IIa-12] , please.
Result string: 13.2

---

protocol-text: Bioavailability in monkeys (plasma pharmacokinetics, HPLC)
Type: in vivo
measurement-context: male, plasma, iv; cynomolgus monkey, i.v. dose 3 mg/kg
metric-name: clearance (mL/min/kg)
Form entry: value (mL/min/kg) — number only.

Query string: Tell me the measured clearance of CCSCc1ccc2c(c1)c1c3c(c4c5cc(CSCC)ccc5n5c4c1n2C1CC(O)(C(=O)OC)C5(C)O1)CNC3=O (stereo not shown) , please.
Result string: 18.3

---

protocol-text: physchem
Type: physicochemical
measurement-context: organic solvent or mixture
metric-name: solubility (mg/mL)
Form entry: value (mg/mL) — number only.

Query string: Tell me the measured solubility of CC12OC(CC1(O)CO)n1c3ccccc3c3c4c(c5c6ccccc6n2c5c31)CNC4=O (stereo not shown) , please.
Result string: 28.4

---

protocol-text: Bioavailability in monkeys (plasma pharmacokinetics, HPLC)
Format: in vivo
measurement-context: male, plasma, iv; cynomolgus monkey, i.v. dose 3 mg/kg; read-out: mean volume of distribution
metric-name: Vd (L/kg)
Form entry: value (L/kg) — number only.

Query string: Tell me the measured Vd of CCSCc1ccc2c(c1)c1c3c(c4c5cc(CSCC)ccc5n5c4c1n2C1CC(O)(C(=O)OC)C5(C)O1)CNC3=O (stereo not shown) , please.
Result string: 4.9

---

protocol-text: physchem
Assay type: physicochemical
measurement-context: aqueous with cosolvent or surfactant or cyclodextrin, kinetic from dmso stock
metric-name: solubility (µg/mL)
Form entry: value (µg/mL) — number only.

Query string: Tell me the measured solubility of CC12OC(CC1(O)CO)n1c3ccccc3c3c4c(c5c6ccccc6n2c5c31)CNC4=O (stereo not shown) [Compound IIa-12] , please.
Result string: 570

---

protocol-text: in vivo
measurement-context: beagle, dog, iv, 1 mg/kg
metric-name: half-life (h)
Form entry: value (h) — number only.

Query string: Tell me the measured half-life of CC12OC(CC1(O)CO)n1c3ccccc3c3c4c(c5c6ccccc6n2c5c31)CNC4=O (stereo not shown) [Compound IIa-12] , please.
Result string: 1.16
